Would you mind telling me the reported IC50 of each entry?
tested on: MCF7; assay: Antiproliferative activity against human MCF7 cells after 48 hrs by MTT assay; conditions: MCF7, 48 h
The reply should contain only the number, in µM.

[Q] Look up and state reported IC50 for `CNC(=O)c1cc(Oc2ccc(NC(=O)Nc3ccc(Cl)c(C(F)(F)F)c3)cc2)ccn1`
[A] 3.47

[Q] Give IC50 for `Cn1cc(-c2ccc(Cn3cc(-c4ccccc4F)nn3)cc2)cn1`
[A] 15.6

* * *

I'd be grateful if you could share measured pIC50 for these entries.
system: LoVo; assay: Antiproliferative activity against human LoVo cells after 48 hrs by MTT assay
Just the number, please; pIC50 means minus log10 of the concentration in mol/L.

[Q] State measured pIC50 of the compound `Cn1cc(-c2ccc(Cn3cc(-c4ccccc4F)nn3)cc2)cn1` with LoVo.
[A] 5.88

[Q] Enter measured pIC50, system LoVo, for the compound shown: `CNC(=O)c1cc(Oc2ccc(NC(=O)Nc3ccc(Cl)c(C(F)(F)F)c3)cc2)ccn1`
[A] 5.60
